- Substrate: CC1=C(C)C(=O)C(C)=C(C)C1=O
- Measurement Notes: purified protein
- Format: biochemical, Thiocapsa roseopersicina
- Condition Description: 200 µM sulfide, 50 mM Tris-HCl pH 8.0, 25 °C, anaerobic
Endpoint Label: kcat (s⁻¹)
Enter your answer as a number in s⁻¹; do not include the unit.

Solved entries (count: 5):
[[record]]
protein = "TrSqrF; SqrF WT (Thiocapsa roseopersicina; I333F) (protein) MHRITIVGSGFAGLTAVQSIRRTAPDAEITLVSNKAEFIYYPGLIWVPCGIRSGEDLRIDLRPFFKRMRVRHLAGEATGLSPDGRTLETTAGPVENDGLVIGSGGRFIKKLPGIEHAITPCEGIAAAEAIRDRVKAMDGGSIAMGFAGNPNEPSSMRGGPIFEFIFGMDSQLRKEGRRDRFRLHFFTPAERPGNRLGPKAVDGILAEMKRRGIETHLGHKLKSFSESKVTTEAGEFDADLILFMPGMTGNTWFDNTDLPRSPGGLLQADAHCRVPGYERVYVAGDSGSFPGPDWMPKQAHMADLQARAAVKNLLAELQGRAPSETFKVELVCFVDANDTGMLVARTEKNNWVLPSTRFFHWMKLGFEWWYLRPYR"
reported = 0.72

[[record]]
protein = "TrSqrF; SqrF WT (Thiocapsa roseopersicina; V331F) (protein) MHRITIVGSGFAGLTAVQSIRRTAPDAEITLVSNKAEFIYYPGLIWVPCGIRSGEDLRIDLRPFFKRMRVRHLAGEATGLSPDGRTLETTAGPVENDGLVIGSGGRFIKKLPGIEHAITPCEGIAAAEAIRDRVKAMDGGSIAMGFAGNPNEPSSMRGGPIFEFIFGMDSQLRKEGRRDRFRLHFFTPAERPGNRLGPKAVDGILAEMKRRGIETHLGHKLKSFSESKVTTEAGEFDADLILFMPGMTGNTWFDNTDLPRSPGGLLQADAHCRVPGYERVYVAGDSGSFPGPDWMPKQAHMADLQARAAVKNLLAELQGRAPSETFKVELFCIVDANDTGMLVARTEKNNWVLPSTRFFHWMKLGFEWWYLRPYR"
reported = 0.72

[[record]]
protein = "TrSqrF; SqrF WT (Thiocapsa roseopersicina) (protein) MHRITIVGSGFAGLTAVQSIRRTAPDAEITLVSNKAEFIYYPGLIWVPCGIRSGEDLRIDLRPFFKRMRVRHLAGEATGLSPDGRTLETTAGPVENDGLVIGSGGRFIKKLPGIEHAITPCEGIAAAEAIRDRVKAMDGGSIAMGFAGNPNEPSSMRGGPIFEFIFGMDSQLRKEGRRDRFRLHFFTPAERPGNRLGPKAVDGILAEMKRRGIETHLGHKLKSFSESKVTTEAGEFDADLILFMPGMTGNTWFDNTDLPRSPGGLLQADAHCRVPGYERVYVAGDSGSFPGPDWMPKQAHMADLQARAAVKNLLAELQGRAPSETFKVELVCIVDANDTGMLVARTEKNNWVLPSTRFFHWMKLGFEWWYLRPYR"
reported = 1.25

[[record]]
protein = "TrSqrF; SqrF WT (Thiocapsa roseopersicina; F366Y) (protein) MHRITIVGSGFAGLTAVQSIRRTAPDAEITLVSNKAEFIYYPGLIWVPCGIRSGEDLRIDLRPFFKRMRVRHLAGEATGLSPDGRTLETTAGPVENDGLVIGSGGRFIKKLPGIEHAITPCEGIAAAEAIRDRVKAMDGGSIAMGFAGNPNEPSSMRGGPIFEFIFGMDSQLRKEGRRDRFRLHFFTPAERPGNRLGPKAVDGILAEMKRRGIETHLGHKLKSFSESKVTTEAGEFDADLILFMPGMTGNTWFDNTDLPRSPGGLLQADAHCRVPGYERVYVAGDSGSFPGPDWMPKQAHMADLQARAAVKNLLAELQGRAPSETFKVELVCIVDANDTGMLVARTEKNNWVLPSTRFFHWMKLGYEWWYLRPYR"
reported = 0.57

[[record]]
protein = "SqrF CTD (Thiocapsa roseopersicina) (protein, C-terminal alpha-helix deletion, stop codons after Thr356; N-terminal StrepII tag, expressed in T. roseopersicina FOQRON) MHRITIVGSGFAGLTAVQSIRRTAPDAEITLVSNKAEFIYYPGLIWVPCGIRSGEDLRIDLRPFFKRMRVRHLAGEATGLSPDGRTLETTAGPVENDGLVIGSGGRFIKKLPGIEHAITPCEGIAAAEAIRDRVKAMDGGSIAMGFAGNPNEPSSMRGGPIFEFIFGMDSQLRKEGRRDRFRLHFFTPAERPGNRLGPKAVDGILAEMKRRGIETHLGHKLKSFSESKVTTEAGEFDADLILFMPGMTGNTWFDNTDLPRSPGGLLQADAHCRVPGYERVYVAGDSGSFPGPDWMPKQAHMADLQARAAVKNLLAELQGRAPSETFKVELVCIVDANDTGMLVARTEKNNWVLPST"
reported = 0.96


// moving on: another record for kcat
Request: So what's the measured kcat for this one? TrSqrF; SqrF WT (Thiocapsa roseopersicina; F366A) (protein) MHRITIVGSGFAGLTAVQSIRRTAPDAEITLVSNKAEFIYYPGLIWVPCGIRSGEDLRIDLRPFFKRMRVRHLAGEATGLSPDGRTLETTAGPVENDGLVIGSGGRFIKKLPGIEHAITPCEGIAAAEAIRDRVKAMDGGSIAMGFAGNPNEPSSMRGGPIFEFIFGMDSQLRKEGRRDRFRLHFFTPAERPGNRLGPKAVDGILAEMKRRGIETHLGHKLKSFSESKVTTEAGEFDADLILFMPGMTGNTWFDNTDLPRSPGGLLQADAHCRVPGYERVYVAGDSGSFPGPDWMPKQAHMADLQARAAVKNLLAELQGRAPSETFKVELVCIVDANDTGMLVARTEKNNWVLPSTRFFHWMKLGAEWWYLRPYR
Result: 0.26
